# Tested on: pepsin
# Construct: purchased Shanghai Aladdin Biochemical Technology Co., Ltd; host or cells: porcine gastric mucosa
# test_name: Simulated gastric digestion with pepsin, products analysed by LC–MS/MS
# Assay type: in vitro ADME, porcine
# run_conditions: pig, simulated gastric fluid; simulated gastric juice (pepsin from porcine gastric mucosa, NaCl), pH 3.0, 200 μg/mL peptide, 2 h, 37 °C; LC–MS/MS; read-out: share of IVYPWTQR split into smaller fragments after pepsin treatment
Ends that are not written are not given here.
outcome_measure: metabolised at 2 h, 200 μg/mL

Specify reported metabolised at 2 h, 200 μg/mL for the sequence shown: IVYPWTQR [IVYPWTQR, IIe-Val-Tyr-Pro-Trp-Thr-Gln-Arg]
~45.2%

Values were extracted from paper PMC9781827.
